- EXPERIMENT_SUMMARY: chemical genetic growth profiling, strain panel (AID 1159580);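 note: tested at 20 µM; growth read once vehicle control cultures reached saturation at 30 °C; 1 = growth at the plate median or of vehicle wells; lower values mean less growth of the strain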
- CONDITION_DETAILS: S. cerevisiae deletion strains, growth OD, locus YIL073C, strain SPO22
About 2,000 (36%) of roughly 5,500 compounds were called active. Inconclusive results (about 18%) are left out. Cut-off read from the data, not from the text of the source: active = normalized growth mostly below about 0.91 (no sharp cut-off); inconclusive = no clear call, values can overlap the other calls; inactive = mostly above about 0.92. The list shows a part of the results.
Your answer must be one of the following: active, inactive

Worked examples, 8 molecules total:
{"MOLECULE": "CC[C@H]1CN2CCC1C[C@@H]2[C@@H](O)c1ccnc2ccc(OC)cc12 (stereo partly drawn)", "CATEGORY_LABEL": "inactive"}
{"MOLECULE": "CO[C@@H]1[C@@H](OC(N)=O)[C@@H](O)[C@H](Oc2ccc3c(O)c(NC(=O)c4ccc(O)c(CC=C(C)C)c4)c(=O)oc3c2C)OC1(C)C", "CATEGORY_LABEL": "inactive"}
{"MOLECULE": "CC(C)Nc1nc(Cl)nc(NC(C)C)n1", "CATEGORY_LABEL": "inactive"}
{"MOLECULE": "COc1nc(NC(C)C)nc(NC(C)C)n1", "CATEGORY_LABEL": "inactive"}
{"MOLECULE": "CC1=C2C(O)C(=O)OC3CC4C(C)(C)C(=O)C=C[C@]4(C)C(CC1)[C@]23C (stereo partly drawn)", "CATEGORY_LABEL": "inactive"}
{"MOLECULE": "O=C(O)CN(CCN(CC(=O)O)CC(=O)O)CC(=O)O", "CATEGORY_LABEL": "active"}
{"MOLECULE": "CCOC(=O)CC(SP(=S)(OC)OC)C(=O)OCC (stereo not drawn)", "CATEGORY_LABEL": "inactive"}
{"MOLECULE": "CC1(C)C(=O)CC[C@@]2(C)C1C[C@@H](O)[C@@]1(C)C3=CC(=O)O[C@@H](c4ccoc4)[C@]3(C)CCC21 (stereo partly drawn)", "CATEGORY_LABEL": "inactive"}

[ask] Field: outcome | Entry: CCC(=O)O[C@]1(C(=O)CCl)[C@@H](C)CC2C3CCC4=CC(=O)C=C[C@]4(C)[C@@]3(F)[C@@H](O)C[C@@]21C (stereo partly drawn)
[reply] inactive

[ask] # fetch the recorded call for COC(=O)[C@H]1[C@H]2C[C@H]3c4[nH]c5cc(OC)ccc5c4CCN3C[C@H]2C[C@@H](OC(=O)c2cc(OC)c(OC)c(OC)c2)[C@@H]1OC here
[reply] inactive

[ask] Name the outcome recorded for O=C(O)c1ccccc1O in the assay.
[reply] inactive

* * *

- EXPERIMENT_SUMMARY: chemical genetic growth profiling, strain panel (AID 1159580)
- CONDITION_DETAILS: S. cerevisiae deletion strains, growth OD, locus YJL168C, strain set2, stronger effect = lower value
Screen size: about 5,500 compounds; about 2,000 (36%) were called active. Not shown: some 18% with an inconclusive outcome. This is one part of the list.
READOUT_LABEL: normalized growth
Lab note: jot the number down without any unit.

Examples with their reported normalized growth follow.
{"COMPOUND": "C[C@@H]1CCC2[C@](C)(CO)[C@@H](O)CC[C@]2(C)[C@@]12CC[C@@](CO)(CCO)O2 (some centres undefined)", "normalized growth": 0.989}
{"COMPOUND": "COc1ccc(-c2cc(=O)c3c(O)cc(O)cc3o2)cc1O", "normalized growth": 0.998}
{"COMPOUND": "O=C(O)CN(CCN(CC(=O)O)CC(=O)O)CC(=O)O", "normalized growth": 0.989}
{"COMPOUND": "CC(=O)N1CCN(c2ccc(OCC3CO[C@](Cn4ccnc4)(c4ccc(Cl)cc4Cl)O3)cc2)CC1 (some centres undefined)", "normalized growth": 0.0995}

Kindly note the recorded normalized growth for COC1=CC(=O)C=C(OC)C1=O , which is 0.998

For this compound ( CC(=O)[C@@]1(O)CCC2C3C=C(Cl)C4=CC(=O)[C@@H]5CC5[C@]4(C)C3CC[C@@]21C (some centres undefined) ), measured normalized growth is 1.01

Consider CCCCCC(O)C1C(=O)OC(C)C(O)/C=C/C=C/C=C/C=C/C=C(\C)C(O)CC(O)CC(O)CC(O)CC(O)CC(O)CC1O (centres undefined) . Its measured normalized growth is 1.02

The reported value for COc1ccc(-c2cc(=O)c3c(O)cc(O)c(-c4cc(-c5cc(=O)c6c(O)cc(O)cc6o5)ccc4OC)c3o2)cc1 in terms of normalized growth is 1.01

Reported normalized growth ( COc1c(O)cc2c(c1O)[C@H]1O[C@H](CO)[C@@H](O)[C@H](O)[C@@H]1OC2=O ) = 1

* * *

- EXPERIMENT_SUMMARY: chemical genetic growth profiling, strain panel (AID 1159580);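 note: tested at 20 µM; growth read once vehicle control cultures reached saturation at 30 °C; 1 = growth at the plate median or of vehicle wells; lower values mean less growth of the strain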
- CONDITION_DETAILS: S. cerevisiae deletion strains, growth OD, locus YCL011C, strain gbp2, stronger effect = lower value
About 2,000 (36%) of roughly 5,500 compounds were called active. Roughly 18% stayed inconclusive and do not appear here. Some of the results follow.
READOUT_LABEL: normalized growth
Give your answer as a number; write no unit.

# annotated cases, reported normalized growth shown
{"MOLECULE": "C[C@]12CCC3C(CC[C@]4(O)C[C@@H](O)CC[C@]34C=O)[C@@]1(O)CCC2C1=CC(=O)OC1 (stereo partly drawn)", "READOUT_LABEL": "normalized growth", "EXPERIMENTAL_RESULT": 0.943}
{"MOLECULE": "C[C@@H]1O[C@@H](O[C@H]2CC[C@]3(C=O)C4CC[C@]5(C)[C@@H](C6=CC(=O)OC6)CC[C@]5(O)C4CC[C@]3(O)C2)[C@H](O)[C@H](O)[C@H]1O (stereo partly drawn)", "READOUT_LABEL": "normalized growth", "EXPERIMENTAL_RESULT": 0.999}

Looking up C[C@H]1O[C@@H](O[C@H]2[C@@H](O)C[C@H](O[C@H]3[C@@H](O)C[C@H](O[C@H]4CC[C@]5(C)C6CC[C@]7(C)[C@@H](C8=CC(=O)OC8)CC[C@]7(O)C6CC[C@@H]5C4)O[C@@H]3C)O[C@@H]2C)C[C@H](O)[C@@H]1O (stereo partly drawn) , I see its normalized growth listed as 0.951

* * *

- EXPERIMENT_SUMMARY: chemical genetic growth profiling, strain panel (AID 1159580);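 note: tested at 20 µM; growth read once vehicle control cultures reached saturation at 30 °C; 1 = growth at the plate median or of vehicle wells; lower values mean less growth of the strain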
- CONDITION_DETAILS: S. cerevisiae deletion strains, growth OD, locus YJL115W, strain asf1, stronger effect = lower value
In all, about 5,500 compounds went through this assay and about 2,000 (36%) were called active. Roughly 18% stayed inconclusive and do not appear here. The list shows a part of the results.
READOUT_LABEL: normalized growth
Please give the numeric answer without any surrounding text.

{"MOLECULE": "Nc1nc(/C(=C/CC(=O)O)C(=O)N[C@@H]2C(=O)N3C(C(=O)O)=CCS[C@H]23)cs1", "normalized growth": 1.03}
{"MOLECULE": "NC[C@H]1O[C@H](O[C@H]2[C@H](O)[C@@H](O[C@H]3O[C@H](CO)[C@@H](O)[C@H](N)[C@H]3O)[C@H](N)C[C@@H]2N)[C@H](N)[C@@H](O)[C@@H]1O", "normalized growth": 0.988}
{"MOLECULE": "C/C=C(\\C)C(=O)O[C@@H]1c2c(ccc3ccc(=O)oc23)OC(C)(C)[C@@H]1OC(C)=O", "normalized growth": 0.995}
{"MOLECULE": "CO[C@@H]1[C@@H](OC(N)=O)[C@@H](O)[C@H](Oc2ccc3c(O)c(NC(=O)c4ccc(O)c(CC=C(C)C)c4)c(=O)oc3c2C)OC1(C)C", "normalized growth": 1.04}
{"MOLECULE": "O=C1CC2(CCCC2)CC(=O)N1CCCCN1CCN(c2ncccn2)CC1", "normalized growth": 0.998}

GET /value?item= COC(=O)[C@H]1[C@H]2C[C@H]3c4[nH]c5cc(OC)ccc5c4CCN3C[C@H]2C[C@@H](OC(=O)c2cc(OC)c(OC)c(OC)c2)[C@@H]1OC &field=normalized growth returns 1.01

The measured normalized growth associated with O=C(CCCN1CCC(O)(c2ccc(Cl)cc2)CC1)c1ccc(F)cc1 reads 1.01

Value of measured normalized growth for the entry CC1(C)Oc2ccc3ccc(=O)oc3c2CC1O (stereo not drawn) : 0.984

* * *

Reported normalized growth is given for each of the following compounds.
- EXPERIMENT_SUMMARY: chemical genetic growth profiling, strain panel (AID 1159580);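 note: tested at 20 µM; growth read once vehicle control cultures reached saturation at 30 °C; 1 = growth at the plate median or of vehicle wells; lower values mean less growth of the strain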
- CONDITION_DETAILS: S. cerevisiae deletion strains, growth OD, locus YNL224C, strain SQS1, stronger effect = lower value
About 2,000 (36%) of roughly 5,500 compounds were called active. About 18% were inconclusive and are not listed. The list shows a part of the results.

Please review the entries below; each comes with its answer.
{"COMPOUND": "CCC1(O)C(=O)OCc2c1cc1n(c2=O)Cc2cc3ccccc3nc2-1 (stereo unspecified)", "normalized growth": "0.897 (active)"}
{"COMPOUND": "Cn1c(=O)c2[nH]c(-c3ccc(S(=O)(=O)O)cc3)nc2n(C)c1=O", "normalized growth": "1 (inactive)"}
{"COMPOUND": "C/C=C/CC(C)C(O)C1C(=O)NC(CC)C(=O)N(C)CC(=O)N(C)C(CC(C)C)C(=O)NC(C(C)C)C(=O)N(C)C(CC(C)C)C(=O)NC(C)C(=O)NC(C)C(=O)N(C)C(CC(C)C)C(=O)N(C)C(CC(C)C)C(=O)N(C)C(C(C)C)C(=O)N1C (stereo unspecified)", "normalized growth": "0.966 (inactive)"}
{"COMPOUND": "O=C(CCCN1CCC(O)(c2cccc(C(F)(F)F)c2)CC1)c1ccc(F)cc1", "normalized growth": "1.13 [resistant] (active)"}
{"COMPOUND": "CCNC(=O)N1CCN(CCCC(c2ccc(F)cc2)c2ccc(F)cc2)CC1", "normalized growth": "1.04 (inactive)"}

compound CCCN(CC1CC1)c1nc(C)nc(Nc2c(Cl)cc(Cl)cc2Cl)c1Cl , normalized growth observed: 1.05 (inactive)

Per the records, this compound ( O=C(CCCN1CCC(O)(c2ccc(Cl)cc2)CC1)c1ccc(F)cc1 ) has normalized growth equal to 1.04 (inactive)

The compound identified as CNCCC(Oc1ccccc1C)c1ccccc1 (stereo unspecified) registered its normalized growth at 1.08 (inactive)
